system: BT-549; experiment: NCI tumour cell line growth inhibition, 48 h
Activity calls are given as the source filed them. No stated cut-off is given here; in the data, active = GI50 up to about 1.1 µM and inactive = higher.
observed property: GI50

Examples from the recorded data:
>  <compound>
Cc1ccc2c(c1)C=CC(C#N)N2C(=O)Oc1ccccc1 (stereo unspecified)

>  <observed property>
GI50

>  <experimental value>
22.8 µM (inactive)

$$$$
>  <compound>
CC12CC(=O)C3C(CCC4=CC(=O)CCC43C)C1CC=C2CC(=O)O (stereo unspecified)

>  <observed property>
GI50

>  <experimental value>
> 100 µM (inactive)

$$$$
>  <compound>
O=C(O)C1C(=O)Oc2c(cccc2[N+](=O)[O-])C1O (stereo unspecified)

>  <observed property>
GI50

>  <experimental value>
> 100 µM (inactive)

$$$$
>  <compound>
COc1ccc(-c2cc(=O)c3c(O)cc(C)cc3o2)cc1OC

>  <observed property>
GI50

>  <experimental value>
> 100 µM (inactive)

$$$$

For every item below, please supply its GI50.
1. S=C(Nc1ccccc1)c1ccc(CN2CCCCC2)s1
2. CC(C)=CC1C(COC(=O)c2cc3c(cc2Cl)OCO3)C1(C)C (stereo unspecified)
3. c1ccc2[nH]c(-c3cscn3)nc2c1

Found:
["21.4 µM (inactive)", "33 µM (inactive)", "> 100 µM (inactive)"]
